B1: HDV Ribozyme (parent)
chain: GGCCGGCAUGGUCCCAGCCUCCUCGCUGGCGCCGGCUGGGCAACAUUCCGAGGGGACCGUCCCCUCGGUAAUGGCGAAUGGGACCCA

- Variants of: B1
- assay text: self-cleavage, relative activity (ratio to wild type); higher = more cleavage; co-transcriptional
measurement kind: self-cleavage

mutant_designation="G38U A71C" reported_value=0.225
mutant_designation="G50U U65G" reported_value=0.945
mutant_designation="C3A G59U" reported_value=0.755
mutant_designation="C3U C15G" reported_value=0.6
mutant_designation="A51G C61G" reported_value=0.964
mutant_designation="U37A U47C" reported_value=0.289
